Target: Bile acid receptor (Homo sapiens) (UniProt Q96RI1)
Sequence (Q96RI1 whole entry, looked up): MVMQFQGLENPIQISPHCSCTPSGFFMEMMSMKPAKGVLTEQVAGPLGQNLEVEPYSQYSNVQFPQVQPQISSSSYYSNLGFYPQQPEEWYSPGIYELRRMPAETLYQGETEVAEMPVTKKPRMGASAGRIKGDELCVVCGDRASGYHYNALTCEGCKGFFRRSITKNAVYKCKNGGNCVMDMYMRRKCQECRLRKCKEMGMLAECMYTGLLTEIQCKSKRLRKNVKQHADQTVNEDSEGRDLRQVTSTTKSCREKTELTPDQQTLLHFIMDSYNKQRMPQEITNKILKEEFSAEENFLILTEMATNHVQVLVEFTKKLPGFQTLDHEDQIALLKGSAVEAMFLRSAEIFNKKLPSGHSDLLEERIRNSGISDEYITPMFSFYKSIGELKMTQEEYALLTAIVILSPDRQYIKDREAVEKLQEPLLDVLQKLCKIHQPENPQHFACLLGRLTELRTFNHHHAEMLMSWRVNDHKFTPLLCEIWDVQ
Assay: OT_FXR_FXRSRC1_0480: Odyssey Thera (OT) 8-hour HEK293T Protein-Complementation Assay for Farnesoid X receptor/SRC-1 Co-activator (AID 2283383)
Results filed as inconclusive are left out. The source made the active and inactive calls. Rule for the calls: active = hit-call score of the fitted dose curve at least 0.9, where 1 is the maximum; inconclusive = response in the unintended direction; inactive = score below 0.9.
Classes used: 1 (yes) (active), 0 (no) (inactive)

{"columns": ["COMPOUND", "CAT"],
 "data": [
  ["CCN(CC)N=O", "0 (no)"],
  ["Cc1cc(N=Nc2ccccc2C)ccc1N", "0 (no)"],
  ["CC(C)(O)c1cnn2c(-c3ccc(F)c(-c4c(F)cccc4C#N)c3)cnc2n1", "1 (yes)"],
  ["CCNS(=O)(=O)C(F)(F)C(F)(F)C(F)(F)C(F)(F)C(F)(F)C(F)(F)C(F)(F)C(F)(F)F", "0 (no)"],
  ["OCCCl", "0 (no)"],
  ["CN(C)[C@@H]1C(=O)C(C(N)=O)=C(O)[C@@]2(O)C(=O)C3=C(O)c4c(O)cccc4[C@@](C)(O)[C@H]3C[C@@H]12", "0 (no)"],
  ["ClCCOCCCl", "0 (no)"],
  ["CCOC(=O)[C@]1(c2ccccc2)Oc2ccccc2[C@@H]1N", "0 (no)"],
  ["CCC(C)c1ccc(O)cc1 (centres undefined)", "0 (no)"],
  ["COP(=S)(OC)SCN1C(=O)c2ccccc2C1=O", "0 (no)"],
  ["Cc1cccc(N)c1N", "1 (yes)"],
  ["CCCCCCCCOC(=O)c1ccc(C(=O)OCCCCCCCC)c(C(=O)OCCCCCCCC)c1", "0 (no)"],
  ["CS(=O)(=O)NC(=O)c1cc(Oc2ccc(C(F)(F)F)cc2Cl)ccc1[N+](=O)[O-]", "0 (no)"],
  ["CCC[CH2][Sn]([Cl])([CH2]CCC)[CH2]CCC", "0 (no)"],
  ["Clc1ccccc1Cl", "0 (no)"],
  ["CC(C)(OOC(C)(C)c1ccccc1)c1ccccc1", "1 (yes)"],
  ["c1ccc(NNc2ccccc2)cc1", "0 (no)"],
  ["CC(C)COC(=O)c1ccccc1C(=O)OCC(C)C", "1 (yes)"],
  ["Nc1ccc(N=Nc2ccccc2)cc1", "0 (no)"]
]}

From: PubChem BioAssay (EPA / NIEHS)
